Record set: IC50 | human LTA4 hydrolase (Homo sapiens, UniProt P09960) | literature, multiple sources.
readout-type: IC50 (nM)

Sample answers from the record:
entry-smiles: c1cc(-c2ccc(Oc3ccc4nc(CNCCC5CCOCC5)ccc4c3)nc2)[nH]n1
unit-string: nM
test-value: 2.5
//
entry-smiles: c1cc(-c2ccc(Oc3ccc(O[C@H]4CCOC4)cc3)cc2)[nH]n1
unit-string: nM
test-value: 2.4
//
entry-smiles: c1ccc2[nH]c(COc3ccc(Oc4ccc(-c5ccn[nH]5)cc4)cc3)nc2c1
unit-string: nM
test-value: 1.4

a. c1cc(-c2ccc(Oc3ccc4[nH]c(CC5CCOCC5)nc4c3)cc2)[nH]n1
b. CN(Cc1ccc2cc(Oc3ccc(-c4ccn[nH]4)cn3)ccc2n1)[C@@H]1CCN(C(=O)CO)C1
c. c1cc(-c2ccc(Oc3ccc(OCc4nccs4)cc3)cc2)[nH]n1
Input line: Ordering criterion: IC50; begin with the maximum. Returns: the labels listed in the requested order.
Output line: c, b, a
(c: 10.4 nM, b: 0.92 nM, a: 0.32 nM)

P. c1ccc2c(c1)OC[C@H](c1ccc(CN3CCCC3)cc1)O2
Q. c1cc(-c2ccc(Oc3ccc4cc(CN5CCOCC5)nn4c3)cc2)[nH]n1
Input line: Please indicate which entry, P or Q , has the lower recorded IC50 value. Please identify the chosen entry by its label.
Output line: P

---

From various publications: IC50 for human LTA4 hydrolase (Homo sapiens).
readout-type: IC50 (nM)

Recorded results for 4 compounds are shown here.
compound: O=C(N1CCN(Cc2ccc3cc(Oc4ccc(-c5ccn[nH]5)cn4)ccc3n2)CC1)C1(O)CCCC1
IC50 / nM: 8.6
--
compound: CCN(CCO)Cc1nc2cc(Oc3ccc(-c4ccn[nH]4)cc3)ccc2[nH]1
IC50 / nM: 0.17
--
compound: CN(C(=O)CO)[C@H]1CCN(Cc2ccc3cc(Oc4ccc(-c5ccn[nH]5)cn4)ccc3c2)C1
IC50 / nM: 0.76
--
compound: O=C(CNCc1ccc2cc(Oc3ccc(-c4ccn[nH]4)cn3)ccc2n1)N1CCCC1
IC50 / nM: 2.8

a. O=C1OCC[C@@H]1Oc1ccc(Oc2ccc(-c3ccn[nH]3)cc2)cc1
b. CC(=O)NC1CCN(CCCn2ncc3cc(Oc4ccc(-c5ccn[nH]5)cc4)ccc32)CC1
Input line: I need your help: which of the pair a , b has higher IC50? Choose, then provide that item's label.
Output line: a
(a: 23.1 nM, b: 0.47 nM)

I. O=C1CCCN1C1CCN(CC2Cc3ccc(Oc4ccc(-c5ccn[nH]5)cc4)cc3O2)CC1 (centres unmarked)
II. c1cnn(CCCOc2ccc(Oc3ccc(-c4ccn[nH]4)cc3)cc2)c1
III. O[C@H]1CCN(Cc2cnc3cc(Oc4ccc(-c5ccn[nH]5)cn4)ccc3c2)C1
Input line: Rank ascending by IC50. List the labels, following the order given in the request.
Output line: I, II, III

1. O=C1CC[C@@H](Oc2ccc(Oc3ccc(-c4ccn[nH]4)nc3)cc2)CN1
2. c1cc(-c2ccc(Oc3ccc4nc(CN5CCCCCC5)ccc4c3)nc2)[nH]n1
3. c1cc(-c2ccc(Cc3ccc4nc(CN5CCOCC5)[nH]c4c3)cc2)[nH]n1
4. O=C1NCC[C@@H]1NCc1ccc2cc(Oc3ccc(-c4ccn[nH]4)cn3)ccc2n1
5. COC1CN(Cc2ccc(C3COc4ccccc4O3)cc2)C1 (centres unmarked)
Input line: Sort low-to-high on IC50, please. Please respond with the labels ordered as the question requires.
Output line: 3, 2, 1, 5, 4

---

Field pIC50: reported value for human LTA4 hydrolase (Homo sapiens); entries drawn from several documents.
pIC50: −log10 of the molar value.
readout-type: pIC50

compound: CN(Cc1nc2cc(Oc3ccc(-c4ccn[nH]4)cc3)ccc2[nH]1)C1CCOCC1
pIC50: 9.72
--
compound: CN(C(=O)CO)C1CCN(Cc2ccc3cc(Oc4ccc(-c5ccn[nH]5)cn4)ccc3n2)CC1
pIC50: 9.11
--
compound: c1cc(-c2ccc(Oc3ccc4[nH]c(CN5CC6(COC6)C5)nc4c3)cc2)[nH]n1
pIC50: 9.85
--
compound: CC1(C)COCCN1Cc1nc2cc(Oc3ccc(-c4ccn[nH]4)cc3)ccc2[nH]1
pIC50: 10.21
--
compound: O=C1CCCN1C1CCN(CC2Cc3ccc(Oc4ccc(-c5ccn[nH]5)cn4)cc3O2)CC1 (centres unmarked)
pIC50: 9.04
--
compound: CC[C@@H](C)NCc1ccc(C2COc3ccccc3O2)cc1 (some centres unmarked)
pIC50: 8.23

a. c1cc(-c2ccc(Oc3ccc(OCc4cc[nH]n4)cc3)cc2)[nH]n1
b. CCC(=O)N1CCN(Cc2cnc3cc(Oc4ccc(-c5ccn[nH]5)cn4)ccc3c2)CC1
Input line: Just tell me: smaller pIC50 value, a or b ? Bench note: the answer is the label of the chosen record.
Output line: a
(a: 8.21, b: 9.36)

---

pIC50: −log10 of the molar value.
The following molecules were reported with pIC50 values on human LTA4 hydrolase (Homo sapiens, UniProt P09960) in different studies.
Sequence (P09960 whole entry): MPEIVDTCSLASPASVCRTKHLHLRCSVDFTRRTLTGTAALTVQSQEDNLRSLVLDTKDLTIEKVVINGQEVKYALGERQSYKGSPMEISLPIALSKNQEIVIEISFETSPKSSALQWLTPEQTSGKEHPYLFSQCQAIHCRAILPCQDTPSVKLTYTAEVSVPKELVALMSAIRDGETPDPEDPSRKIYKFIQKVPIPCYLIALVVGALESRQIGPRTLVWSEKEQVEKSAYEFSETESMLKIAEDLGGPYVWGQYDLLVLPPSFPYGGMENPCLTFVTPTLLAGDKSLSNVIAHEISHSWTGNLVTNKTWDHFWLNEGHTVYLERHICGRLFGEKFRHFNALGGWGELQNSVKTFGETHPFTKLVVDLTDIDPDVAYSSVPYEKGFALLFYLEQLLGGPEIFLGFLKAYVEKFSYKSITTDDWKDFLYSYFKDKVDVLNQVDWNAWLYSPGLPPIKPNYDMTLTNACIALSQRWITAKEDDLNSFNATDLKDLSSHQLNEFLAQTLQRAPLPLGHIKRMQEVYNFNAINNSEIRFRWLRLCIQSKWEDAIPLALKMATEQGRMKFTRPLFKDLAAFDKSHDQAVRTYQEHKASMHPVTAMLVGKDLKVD
readout-type: pIC50

Before answering, review these 3 worked examples.
molecule: c1cc(-c2ccc(Oc3ccc4c(c3)OC(CN3CCCC3)C4)nc2)[nH]n1 (centres unmarked)
tested-target: human LTA4 hydrolase (Homo sapiens, UniProt P09960)
pIC50: 9.29
--
molecule: O=C1NCCC12CCN(Cc1ccc([C@@H]3COc4ccccc4O3)cc1)CC2
tested-target: human LTA4 hydrolase (Homo sapiens, UniProt P09960)
pIC50: 8.80
--
molecule: O=C1CC[C@@H](COc2ccc(Oc3ccc(-c4ccn[nH]4)cc3)cc2)O1
tested-target: human LTA4 hydrolase (Homo sapiens, UniProt P09960)
pIC50: 9.10

1. CCN(CCOC)Cc1nc2cc(Oc3ccc(-c4ccn[nH]4)cc3)ccc2[nH]1
2. O=C1OCCN1C1CCN(Cc2ccc3cc(Oc4ncc(-c5ccn[nH]5)cn4)ccc3c2)CC1
Input line: Hi, I'm comparing 1 with 2 and wondering which one has the bigger number for pIC50. Any idea? Select an item and report its label.
Output line: 1

a. O=C1CCCN1C1CCN(Cc2ccc3cc(Oc4ncc(-c5ccn[nH]5)cn4)ccc3c2)CC1
b. CC(=O)N1CCN(Cc2cc3ccc(Oc4ccc(-c5ccn[nH]5)cn4)cc3[nH]2)CC1
Input line: # returns the entry with the larger pIC50; inputs a and b Please reply using the label of the selected record.
Output line: b
(b: 9.57, a: 8.72)

---

Several reports have described pIC50 for human LTA4 hydrolase (Homo sapiens); a selection of those results is presented here.
pIC50: −log10 of the molar value.
readout-type: pIC50

entry-smiles: CN(Cc1cnc2cc(Oc3ccc(-c4ccn[nH]4)cn3)ccc2c1)[C@H]1CCN(C(=O)CO)C1
pIC50: 8.89

a. c1ccc2c(c1)OC[C@H](c1ccc(CN3CCOCC3)cc1)O2
b. C[C@@H](O)C(=O)N1CCN(CCc2coc3cc(Oc4ccc(-c5ccn[nH]5)cn4)ccc23)CC1
c. COC1CCN(Cc2nc3cc(Oc4ccc(-c5ccn[nH]5)cc4)ccc3[nH]2)CC1
Input line: Put the items in order so that reported pIC50 rises from first to last. State the ranking by listing the labels in the requested order.
Output line: a, b, c
(a: 8.64, b: 8.96, c: 9.80)

---

Collected literature values of IC50 measured for UniProt P09960.
readout-type: IC50 (nM)

Take a look at these entries with their results.
compound: CC(=O)NC1CN(Cc2ccc3cc(Oc4ccc(-c5ccn[nH]5)cn4)ccc3c2)C1
tested-target: UniProt P09960
IC50, nM: 0.5
--
compound: c1cc(-c2ccc(Oc3ccc(OCC4CCCO4)cc3)cc2)[nH]n1 (stereo not drawn)
tested-target: UniProt P09960
IC50, nM: 6.8
--
compound: OCCCC1CCN(Cc2ccc(C3COc4ccccc4O3)cc2)CC1 (stereo not drawn)
tested-target: UniProt P09960
IC50, nM: 2.04

A. c1ccc2c(c1)OC[C@@H](c1ccc(CN3CCOCC3)cc1)O2
B. CN(C)C(=O)CC1CCN(CC2Cc3ccc(Oc4ccc(-c5ccn[nH]5)cc4)cc3O2)CC1 (stereo not drawn)
C. O=C([C@@H]1CCOC1)N1CCN(Cc2ccc3cc(Oc4ccc(-c5ccn[nH]5)cn4)ccc3n2)CC1
D. CC(=O)N1CCN(Cc2coc3cc(Oc4ccc(-c5ccn[nH]5)cn4)ccc23)CC1
E. O=C1[C@@H](O)CCN1C1CCN(CCc2coc3cc(Oc4ccc(-c5ccn[nH]5)cn4)ccc23)CC1
Input line: Order the records, beginning with the lowest IC50 and ending with the highest. Put the labels in the requested order and list them out.
Output line: B, E, D, C, A

I. O=S1(=O)CCN(Cc2ccc3cc(Oc4ccc(-c5cc[nH]n5)cn4)ccc3n2)CC1
II. CC(=O)N1CCC(N(C)Cc2ccc3cc(Oc4ccc(-c5ccn[nH]5)cn4)ccc3n2)CC1
Input line: Which has the higher IC50, I or II ? # reply format: chosen label
Output line: I

1. CN(Cc1nc2cc(Oc3ccc(-c4ccn[nH]4)cc3)ccc2[nH]1)CC1CCOC1 (stereo not drawn)
2. COC[C@@H]1CCCN1Cc1nc2cc(Oc3ccc(-c4ccn[nH]4)cc3)ccc2[nH]1
Input line: Please tell me which of the two, 1 or 2 , has the higher reported IC50 value. Write down the label attached to your selection.
Output line: 1

P. O=C(CO)NC1CCN(Cc2ccc3cc(Oc4ccc(-c5ccn[nH]5)cn4)ccc3c2)CC1
Q. N#CC1CN(Cc2ccc(C3COc4ccccc4O3)cc2)C1 (stereo not drawn)
Input line: Given P and given Q , which shows the smaller recorded IC50? Reply with the label of the item you choose.
Output line: P
